- protocol: Inhibition of RSK expressed in SF9 cells
- Parameters: species or system Homo sapiens
Provide the recorded pIC50 for the entries that follow.
Scale note: pIC50 = -log10(concentration in M).

The reported value for CCO[C@@H]1[C@@H](OCC)[C@@H](O)[C@H](Oc2c(-c3ccc(O)cc3)oc3cc(O)cc(O)c3c2=O)O[C@H]1C in terms of pIC50 is 6.89

The molecule listed as CC(=O)O[C@@H]1[C@@H](OC(C)=O)[C@@H](O)[C@H](Oc2c(-c3ccccc3)oc3cccc(O)c3c2=O)O[C@H]1C has a reported pIC50 of 4.88

In plain terms, C[C@@H]1O[C@@H](Oc2c(-c3ccc(O)cc3)oc3cc(O)cc(O)c3c2=O)[C@H](O)[C@H](O)[C@H]1O [AFZELIN] has a documented pIC50 of 5.36

Consider CC(=O)O[C@@H]1[C@@H](OC(C)=O)[C@@H](O)[C@H](Oc2c(-c3ccc(O)cc3)oc3cccc(O)c3c2=O)O[C@H]1C . Its measured pIC50 is 5.81

In plain terms, CC(=O)O[C@@H]1[C@@H](OC(C)=O)[C@@H](O)[C@H](Oc2c(-c3ccc(O)cc3)oc3cc(O)ccc3c2=O)O[C@H]1C has a documented pIC50 of 4.61
